Recorded values, source patent US8741911B2.

# System: NCI-H2009
# method: CellTiter-Glo proliferation and viability assay
# Assay type: cell-based
# experimental_conditions: Homo sapiens, read-out: Rel IC50
experimental_endpoint: pIC50
# pIC50 = -log10(concentration in molar units)

Quick note, pIC50 for CNc1ncc2cc(-c3cc(NC(=O)NCCC(C)(C)C)c(F)cc3C)c(C)nc2n1 landed at 8.80

###

# Test system: phospho-ERK in A375 V600E-PLX4032 resistant cells (A375-res)
# method: SureFire phospho-ERK AlphaScreen cellular assay
# Assay type: cell-based
# experimental_conditions: Homo sapiens, A-375, 1 hour treatment
experimental_endpoint: IC50 (nM)
The answer is to be given in nM; state only the numeric part.

Quick note, IC50 for CNc1ncc2cc(-c3cc(NC(=O)NCCC(C)(C)C)c(F)cc3C)c(C)nc2n1 [Example 1] landed at 9.7
